target: AMP-activated protein kinase, AMPK (Homo sapiens) (UniProt P54646+O43741+P54619+Q9UGJ0+Q9Y478+Q13131+Q9UGI9); assay: AMP-dependent Kinase enzyme assay. An in vitro enzyme assay that detects ADP turnover that is directly proportional to AMPK activity. This uses naive AMPK that is activated during the assay with MK-8722; format: functional; set-up: scale not given: direction of the effect not stated beside the values; conditions: 30 µM
metric: Percent Effect (%)

- CC1(C(=O)N2CCOCC2)CN(Cc2ccccc2F)CCO1 (configuration not stated): 12
- CCC1CN(c2nnc(C)c(C)c2C#N)CCO1 (configuration not stated): -17.9
- Cc1ccc(O)c(CNC2CCc3nc(C(C)C)nn3C2)n1 (configuration not stated): 2.66
- CCOC(=O)NC(C(=O)NCc1ccc(N2CCCCC2)nc1)C(C)C (configuration not stated): -4
- Cn1cc(C2CCCN2Cc2csc(C(C)(C)C)n2)cn1 (configuration not stated): -5.07
- COCCOc1ccc(NC(=O)N(C)Cc2ccsc2)cn1: -9.72
- COc1ccccc1N1CCC(CNCc2cccc(C#N)c2)C1 (configuration not stated): 9.38
- Cc1nc(COC[C@]23COC[C@H]2CN(Cc2ccoc2)C3)cs1: -4.16
- Cn1c(C(=O)N2CCC(C(=O)N3CCCC3)CC2)c(Cl)c2ccccc21: -1.92
- Cc1cnn(CC2CCCCN2CCC(=O)Nc2cc(C)on2)c1 (configuration not stated): -0.138
- Cc1ccc(CNC2CCN(CCc3ccncc3)CC2)s1: -1.83
- COCC(=O)N1CC[C@@H]2CN(Cc3cccc(Cl)c3)S(=O)(=O)[C@@H]2CC1: -2.58

----------
target: Chromo domain-containing protein 1 (Saccharomyces cerevisiae (strain ATCC 204508 / S288c) (Baker's yeast)) (UniProt P32657); assay: ScCHD-1 Enzyme Inhibition Assay; assay type: functional; parameters: scale not given: in the data most compounds retested in dose-response had high values; details: 30 µM
Sequence (P32657 whole entry, the tested form may be a part): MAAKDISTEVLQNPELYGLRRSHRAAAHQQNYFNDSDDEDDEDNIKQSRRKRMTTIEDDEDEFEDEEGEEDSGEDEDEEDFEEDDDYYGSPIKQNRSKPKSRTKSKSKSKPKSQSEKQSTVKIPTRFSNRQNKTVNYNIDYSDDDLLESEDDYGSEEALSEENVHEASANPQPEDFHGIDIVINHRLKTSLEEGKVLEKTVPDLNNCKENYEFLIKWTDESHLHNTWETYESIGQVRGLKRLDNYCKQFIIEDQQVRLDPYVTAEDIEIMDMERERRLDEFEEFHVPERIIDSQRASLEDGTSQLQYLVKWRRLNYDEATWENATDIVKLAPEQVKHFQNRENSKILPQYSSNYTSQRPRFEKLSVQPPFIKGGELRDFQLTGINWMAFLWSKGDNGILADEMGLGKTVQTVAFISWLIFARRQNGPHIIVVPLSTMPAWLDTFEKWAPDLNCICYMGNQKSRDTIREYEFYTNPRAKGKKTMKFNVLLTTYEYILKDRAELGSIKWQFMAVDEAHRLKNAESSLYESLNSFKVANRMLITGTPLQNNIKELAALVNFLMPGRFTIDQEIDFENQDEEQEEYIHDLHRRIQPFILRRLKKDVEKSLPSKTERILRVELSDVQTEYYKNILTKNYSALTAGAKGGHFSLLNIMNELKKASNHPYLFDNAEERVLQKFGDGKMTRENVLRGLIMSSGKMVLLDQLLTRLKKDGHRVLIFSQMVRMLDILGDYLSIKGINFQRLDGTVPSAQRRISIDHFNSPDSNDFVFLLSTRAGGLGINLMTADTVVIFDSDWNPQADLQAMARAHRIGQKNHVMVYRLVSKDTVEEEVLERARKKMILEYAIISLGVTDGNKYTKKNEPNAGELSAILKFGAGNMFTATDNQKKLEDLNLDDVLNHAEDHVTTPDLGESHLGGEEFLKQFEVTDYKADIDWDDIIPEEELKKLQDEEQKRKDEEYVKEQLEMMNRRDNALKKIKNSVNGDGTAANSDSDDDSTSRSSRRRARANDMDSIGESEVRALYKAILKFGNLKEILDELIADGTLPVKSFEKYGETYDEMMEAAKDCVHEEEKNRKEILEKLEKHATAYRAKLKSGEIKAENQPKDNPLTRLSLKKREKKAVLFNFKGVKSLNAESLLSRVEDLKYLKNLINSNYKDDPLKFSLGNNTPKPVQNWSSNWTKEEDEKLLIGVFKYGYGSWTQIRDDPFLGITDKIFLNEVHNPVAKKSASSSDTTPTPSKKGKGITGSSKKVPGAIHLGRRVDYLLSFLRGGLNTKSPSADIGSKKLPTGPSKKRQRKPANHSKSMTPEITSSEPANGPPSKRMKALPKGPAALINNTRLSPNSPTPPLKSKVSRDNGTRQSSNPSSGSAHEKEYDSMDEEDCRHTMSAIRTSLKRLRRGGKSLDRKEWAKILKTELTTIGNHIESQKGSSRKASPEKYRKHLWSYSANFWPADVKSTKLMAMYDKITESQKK
metric: Percent Effect (%)

* O=C1N(c2cccc(Cl)c2)Cc2nc(=O)n(Cc3cccc(F)c3)n21 | -8.79
* O=c1cc2c(nn1CN1CCN(c3ccccc3)CC1)CCC2 | -9.54
* C1CC1c1nsc(N2CCN(C3CC3)CC2)n1 | -6.12
* Cc1nc(C)n(C2CCCN(C(=O)c3ccccc3C)C2)n1 (stereo unspecified) | -10
* Cc1nc(CN2C(=O)C[C@H]3[C@H]2CCN3C2CCOCC2)cs1 | -3.21
* CS(=O)(=O)NC[C@]12COC[C@H]1CN(CC1CCCC1)C2 | 0.895

----------
molecular target: Proteasome subunit beta (Trypanosoma cruzi); test: Trypanosoma cruzi proteasome chymotrypsin-like activity (TcProtChymo) assay.; assay type: functional; parameters: scale not given: in the data most compounds retested in dose-response had high values; settings: 9.37 µM
Quick reference for Percent Effect among some compounds
metric: Percent Effect (%)

* CO[C@H]1CN(C(=O)c2ccccn2)[C@@H]2CCCO[C@H]12 | 17.5
* COc1ccc(Cl)cc1NCC(=O)NCCNc1cnccn1 | 3.96
* CCc1nc(C2CCCN2CC(=O)Nc2sc(C)c(C)c2C)no1 (centres undefined) | -8.11
* O=C(CN1CCC(c2ccnn2CCO)CC1)NCc1cccs1 | 2.87
* O[C@H]1CCN(Cc2ccoc2)[C@H]1Cc1cccnc1 | 5.47
* CC(NC(=O)COc1nc(C(C)(C)C)no1)c1ccco1 (centres undefined) | 3.45
* Cn1cccc1C(=O)Nc1cc(F)ccc1OCC1CCCO1 (centres undefined) | 0.507
* NC(=O)NCC1CCCCN1C(=O)c1cccc(C(F)(F)F)c1 (centres undefined) | 2.79
* N#Cc1ccccc1OCCN1CCCCC1Cn1cncn1 (centres undefined) | 3.78
* Cn1cc(C(=O)CC2CCCN2C(=O)c2cncc3ccccc23)cn1 (centres undefined) | 5.66
* CCn1cc(NC(=O)NC2CCCc3c2cnn3CCO)cn1 (centres undefined) | 9.77
* Cc1nc(COC[C@]23COC[C@H]2CN(Cc2ccoc2)C3)cs1 | -2.49
* CC(=O)NCCc1ccc(S(=O)(=O)N(CC(C)C)C(C)C)s1 | 18.2
* CC(C)S(=O)(=O)NCC1CCCN(C(=O)c2cccnc2)C1 (centres undefined) | 21.3
* Cc1ccc(C(=O)N2C[C@@H]3COC[C@]3(COc3cccnc3)C2)cn1 | 13.3
* COCCn1ccc2cc(NC(C)=O)ccc21 | 16.4
* Cc1ccc(OCCCNC(=O)NC(C)c2nncn2C)cc1 (centres undefined) | 8
* Cn1cc(NC(=O)Cn2c(CS(C)(=O)=O)nc3ccccc32)cn1 | 12.6
* CC(=O)Nc1nc(C(=O)NC(C)c2ccc3c(c2)OCCO3)cs1 (centres undefined) | 8.97
* O=C(c1cc(Cl)c2c(c1)OCO2)N1CCN(c2nccs2)CC1 | 7.45
* Cc1nc(C2CCCN2Cc2nnc(C3CC3)o2)no1 (centres undefined) | 17.2
* Cc1cc(C)cc(NC(=O)CN2CCCC(n3cncn3)C2)c1 (centres undefined) | 1.44
* CCOc1ccccc1OC1CCN(C(=O)c2cc[nH]n2)CC1 | 12.4
* N#Cc1ccc(N2CCN(C(=O)c3cc(C4CC4)[nH]n3)CC2)c(F)c1 | -0.179

----------
molecular target: Protein translocase subunit SecA (Escherichia coli (strain K12)) (UniProt P10408); experiment: Assay to Identify E. coli SecA ATPase Inhibitors; type: functional; parameters: scale not given: direction of the effect not stated beside the values; conditions: 30 µM
Sequence (P10408 whole entry): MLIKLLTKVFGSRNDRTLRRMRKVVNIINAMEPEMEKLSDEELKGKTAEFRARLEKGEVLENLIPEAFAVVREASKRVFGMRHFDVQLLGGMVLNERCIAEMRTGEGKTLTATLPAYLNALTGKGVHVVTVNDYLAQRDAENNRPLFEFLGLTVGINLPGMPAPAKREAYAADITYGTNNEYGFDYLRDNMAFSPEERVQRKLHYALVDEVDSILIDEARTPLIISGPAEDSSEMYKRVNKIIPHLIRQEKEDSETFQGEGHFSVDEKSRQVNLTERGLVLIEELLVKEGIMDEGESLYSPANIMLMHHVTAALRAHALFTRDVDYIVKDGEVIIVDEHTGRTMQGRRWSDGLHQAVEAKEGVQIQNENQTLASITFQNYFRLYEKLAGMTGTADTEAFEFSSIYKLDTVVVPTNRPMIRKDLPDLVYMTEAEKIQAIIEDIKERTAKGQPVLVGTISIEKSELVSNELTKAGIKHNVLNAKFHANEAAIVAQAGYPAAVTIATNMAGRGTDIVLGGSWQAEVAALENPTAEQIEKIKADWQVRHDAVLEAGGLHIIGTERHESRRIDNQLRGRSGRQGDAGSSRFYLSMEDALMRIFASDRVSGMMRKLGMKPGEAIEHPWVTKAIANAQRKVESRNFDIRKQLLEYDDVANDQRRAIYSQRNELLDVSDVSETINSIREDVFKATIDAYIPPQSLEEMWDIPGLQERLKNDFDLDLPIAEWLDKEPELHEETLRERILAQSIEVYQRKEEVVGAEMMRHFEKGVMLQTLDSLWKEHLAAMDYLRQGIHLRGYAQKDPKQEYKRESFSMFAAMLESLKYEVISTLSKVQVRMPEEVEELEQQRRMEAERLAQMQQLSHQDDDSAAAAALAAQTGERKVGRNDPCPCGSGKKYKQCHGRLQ
Results with a measured potency or affinity are listed apart.
Listing of recorded Percent Effect by entry.
metric: Percent Effect (%)

- CCn1ncc2c1C(COC)CN(Cc1ccsc1)C2 (stereo unspecified): -3.96
- Cc1ccc(NC2CCN(C(=O)CC3CCCO3)CC2)nn1 (stereo unspecified): -3.13
- Cc1n[nH]c(C2CN(C(=O)c3cnc[nH]3)CCO2)n1 (stereo unspecified): -2.98
- Cc1cnn(C2CN(Cc3nc(C(C)(C)C)no3)C2)c1: -0.455
- CC(C)c1cc(C(=O)N2CCN(Cc3ccsc3)CC2)n[nH]1: -2.94
- CC(Cn1cccn1)NC(=O)Nc1ccc(F)cc1 (stereo unspecified): 0.465

----------
Reported Percent Effect values follow for various molecules
biological target: Proteasome subunit beta (Trypanosoma cruzi) (UniProt O96673); assay: Trypanosoma cruzi proteasome chymotrypsin-like activity (TcProtChymo) assay.; type: functional; design: scale not given: in the data most compounds retested in dose-response had high values; conditions: 9.37 µM
Sequence (O96673 as listed by the source): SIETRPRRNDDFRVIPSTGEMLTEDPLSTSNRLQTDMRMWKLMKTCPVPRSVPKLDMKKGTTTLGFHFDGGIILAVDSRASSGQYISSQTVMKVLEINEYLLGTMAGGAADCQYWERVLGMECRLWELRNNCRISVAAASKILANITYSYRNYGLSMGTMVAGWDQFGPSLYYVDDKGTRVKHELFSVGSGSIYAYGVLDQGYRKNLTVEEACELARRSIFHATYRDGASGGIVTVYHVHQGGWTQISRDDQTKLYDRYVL
metric: Percent Effect (%)

* CC(C)c1cc(C(=O)N2CCN(Cc3ccsc3)CC2)n[nH]1 | 12.1
* CCOc1cc(C(=O)N2CCCC(c3noc(C)n3)C2)ccn1 (stereo unspecified) | 2.12
* O=C(CCc1ccc(O)cc1)N1CCC(Cc2ccc(CO)cc2)C1 (stereo unspecified) | 8.6
* COC(=O)c1ccc2ccn(CC3CCNC3)c(=O)c2c1 (stereo unspecified) | 21.8
* COCCN1C[C@H]2CC[C@@]3(N=C(C)N(CC4CC4)C3=O)[C@H]2C1 | 8.71
* CO[C@H]1CCN(S(=O)(=O)c2cn(C)cn2)[C@H]1Cc1cccnc1 | 7.86
* O=C(NC1CCN(c2snc3ccccc23)CC1)C1CCC1 | 9.43
* CCN(CC)C(=O)c1ccn(COc2cc(C)cc(C)c2)n1 | 14.1
* CCc1ncc2c(n1)CN(CC(=O)NCCOc1ccccc1)CC2 | -5.84
* COCc1cc(NCc2cc(F)ccc2F)n2nccc2n1 | 5.15
* CC(C)CC(=O)N1CCN(C(=O)N(C)C)CC2(CC(=O)N(C)C2)C1 (stereo unspecified) | -1.61

----------
Recorded measurements of Percent Effect, one per entry
Target: Tyrosyl-tRNA synthetase, putative (Trypanosoma cruzi (strain CL Brener)) (UniProt Q4DSP6)
Sequence (whole entry): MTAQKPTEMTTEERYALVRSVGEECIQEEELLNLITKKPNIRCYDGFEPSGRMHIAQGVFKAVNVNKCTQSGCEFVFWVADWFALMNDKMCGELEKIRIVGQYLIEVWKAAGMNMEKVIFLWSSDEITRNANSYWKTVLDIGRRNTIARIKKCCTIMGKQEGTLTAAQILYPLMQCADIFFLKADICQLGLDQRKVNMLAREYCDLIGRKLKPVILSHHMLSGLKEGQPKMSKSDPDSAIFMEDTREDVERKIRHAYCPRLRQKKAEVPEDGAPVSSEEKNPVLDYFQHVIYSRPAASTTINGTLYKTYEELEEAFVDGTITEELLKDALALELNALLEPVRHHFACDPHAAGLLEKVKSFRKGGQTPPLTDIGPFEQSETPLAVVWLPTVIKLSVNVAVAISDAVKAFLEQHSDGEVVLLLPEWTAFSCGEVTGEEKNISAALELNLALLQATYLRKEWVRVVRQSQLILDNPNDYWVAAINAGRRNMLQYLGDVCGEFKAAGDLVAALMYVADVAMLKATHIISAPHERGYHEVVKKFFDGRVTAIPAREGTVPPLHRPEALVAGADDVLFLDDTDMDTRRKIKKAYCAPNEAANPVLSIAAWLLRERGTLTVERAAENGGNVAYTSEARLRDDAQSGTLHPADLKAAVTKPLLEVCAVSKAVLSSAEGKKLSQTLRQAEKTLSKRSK
Experiment: Trypanosoma cruzi tyrosyl tRNA synthetase (TcYRS) _High Tyrosine SOP; further: in the data most compounds retested in dose-response had high values
Type: functional
Parameters: scale not given: direction of the effect not stated beside the values
Settings: 30 µM
metric: Percent Effect (%)

• COc1ccc(NC(=O)NC(C)(C)c2noc(C)n2)cc1 = 4.3
• Cc1ccc(CNS(=O)(=O)CC2=NC(=O)n3cccc3C2=O)cc1 = -2.12
• Cc1cn2c(n1)CCC(NC(=O)c1ccc(CS(C)(=O)=O)o1)C2 (configuration not stated) = 3.43
• Cc1nn(C)c(C)c1C1CCCN1Cc1nc(-c2ccco2)oc1C (configuration not stated) = 8.91
• CC(O)CN1CCN(C(=O)c2ccn(-c3cccc(Cl)c3)n2)CC1 (configuration not stated) = -1.94
• CCCNC(=O)CCC(=O)Nc1ccc(-n2cncn2)c(F)c1 = -0.49
• Cc1cc(C[S+]([O-])CC(=O)Nc2c(C)cccc2C)no1 (configuration not stated) = 8.74
• CCc1cnc(CN(C(C)=O)C2CCN(CCc3cccs3)C2)o1 (configuration not stated) = 7.39
• COc1cc(N2CC[C@H](O)[C@@H]2Cc2cnn(C)c2)ncn1 = 3.24
• NC(=O)c1cnn2c1NCC(CNCCCOc1ccccc1F)C2 (configuration not stated) = 9.31
• CNS(=O)(=O)Cc1ccc(CNC(=O)Nc2cn[nH]c2)cc1 = 2.46
• Cc1ccc(CN2Cc3nnn(C)c3C(COCCN(C)C)C2)s1 (configuration not stated) = 2.15
• CC(C)(C)c1ncc2c(n1)CN(C(=O)c1ccncc1)C2 = 9.38
• O=C(CCCc1ncc(-c2ccccc2)o1)N1CCN(CCO)CC1 = 4.43
• Cn1cc(NC(=O)Cn2c(CS(C)(=O)=O)nc3ccccc32)cn1 = 3.19
• Cc1cc(Nc2nc(C)cs2)nc(C2CCCCN2CCO)n1 (configuration not stated) = 4.3
• COCCN1CCC(CNC(=O)C2(c3cccc(C)c3)CC2)CC1 = 1.04
• COc1cccc([C@@H]2CN(C(=O)c3ccc(C)cc3O)C[C@H]2C(=O)O)c1 = 3.23
• Cc1nc(CN2CCCC(NCCc3ccccc3Cl)C2)no1 (configuration not stated) = 5.42
• CC1=Nc2c(c(=O)[nH]n2C(C)C)C(c2ccc(F)c(F)c2)S1 (configuration not stated) = 18
• CCC(=O)NCC(=O)NCc1cc(Br)ccc1OC(F)F = 7.1
• CNC(=O)C(NC(=O)c1nccn2ccnc12)c1ccc(F)c(F)c1 (configuration not stated) = 5.94
• CCN1CC(C(=O)N(C)Cc2ccon2)CC1=O (configuration not stated) = -1.07
• COc1cc(C)c(CN2CCC3(CC2)C(C(=O)O)CC(=O)N3C)cc1C (configuration not stated) = 3.83
• COc1ccccc1OCc1cc(C(=O)N2CC=CC2C(C)C)n[nH]1 (configuration not stated) = 5.26
• Cc1nc(C)n(CC2CCCCN2CCC(=O)Nc2cc(C)on2)n1 (configuration not stated) = -7.29
• Cc1ccc(C(C)NC(=O)Cc2c(C)nc3c(c2C)c(=O)[nH]n3C)o1 (configuration not stated) = 1.07
• COc1ncccc1NC(=O)NCC(O)c1ccc(F)cc1F (configuration not stated) = 2.08
• CCc1nc(CN2CCCC(N(C)Cc3cnc(C)s3)C2)no1 (configuration not stated) = 2.15
• CCc1nc2n(n1)CC(NCC(=O)Nc1cc(C)on1)CC2 (configuration not stated) = -3.45
• Cc1ccc(CC(=O)NC(C)C(=O)N2CCS(=O)(=O)CC2)cc1 (configuration not stated) = 3.7
• Cc1cc(CN2CCN(C(=O)Nc3cccnc3)CC2)on1 = 6.37
• CCS(=O)(=O)c1ccc(N2CCC(NC(=O)c3cnn(C)c3)CC2)cc1 = 1.64
• Cc1ccc(C(=O)Nc2cc(C(C)C)n[nH]2)cn1 = 3.88
• CCc1nc(CCNC(=O)Nc2cc(C(N)=O)sc2C)cs1 = -0.546
• CN(CCCNC(=O)N1CCCC1c1ccsc1)c1ccccn1 (configuration not stated) = 9.71
• Cc1nc(N2CCCC2)nc2c1CCN(C(=O)C1CCCC1)CC2 = 9.52
• COCCC1COC2(CCN(C(=O)c3ccco3)CC2)C1 (configuration not stated) = 8.51
• COCCC(=O)N1CCC2(COCc3cnc(-c4ccccc4)nc32)C1 (configuration not stated) = -1.06
• Cc1nc(CNC(=O)NCC(O)c2cccc(Cl)c2)cs1 (configuration not stated) = 0.529
• CCS(=O)(=O)N1CCC(c2nnc(CN3CCOCC3)n2C)CC1 = 9.29
• N#Cc1ccc(N2CCCN(C(=O)CC3CCCO3)CC2)cc1 (configuration not stated) = 0.493
• O=C(NCCn1ccnc1)c1cccc(F)c1 = 5.42
• O=C(Nc1ncn(CC(=O)N2CCCCCC2)n1)C1CCCO1 (configuration not stated) = 2.45
• Cc1nnc2n1CCN(C(=O)COCCOc1ccccc1)C2 = 5.21
• Cc1ccc(N2CCCN(C(=O)C(C(C)C)n3cncn3)CC2)nn1 (configuration not stated) = 7.92
• O=C(COc1cccc2c1CCC2=O)NCc1ccccc1F = 3.19

Reference source: ChEMBL document CHEMBL3988442
